Where do these numbers come from? They come from ChEMBL document CHEMBL1909046.

assay: DRUGMATRIX: Calcium Channel Type L, Benzothiazepine radioligand binding (ligand: [3H] Diltiazem); format: cell membranes, Rattus norvegicus, Wistar, Brain, Membrane; conditions: Not Active = under 50% inhibition at 10 µM
Property measured: IC50

# Compound, Result
data = [
    ("C[C@H]1COc2c(N3CCN(C)CC3)c(F)cc3c(=O)c(C(=O)O)cn1c23.C[C@H]1COc2c(N3CCN(C)CC3)c(F)cc3c(=O)c(C(=O)O)cn1c23.O", "Not Active"),
    ("NC(=O)N1c2ccccc2CC(=O)c2ccccc21 [OXCARBAZEPINE]", "Not Active"),
    ("CN1CCCC(CN2c3ccccc3Sc3ccccc32)C1 (stereo not drawn)", "Not Active"),
]

* * *

biological target: 5-hydroxytryptamine receptor 6 (Homo sapiens); format: cell membranes, HeLa, Membrane; details: read-out: IC50; further: in other assays of this panel Not Active means under 50% inhibition at 10 µM
Sequence (P50406 whole entry): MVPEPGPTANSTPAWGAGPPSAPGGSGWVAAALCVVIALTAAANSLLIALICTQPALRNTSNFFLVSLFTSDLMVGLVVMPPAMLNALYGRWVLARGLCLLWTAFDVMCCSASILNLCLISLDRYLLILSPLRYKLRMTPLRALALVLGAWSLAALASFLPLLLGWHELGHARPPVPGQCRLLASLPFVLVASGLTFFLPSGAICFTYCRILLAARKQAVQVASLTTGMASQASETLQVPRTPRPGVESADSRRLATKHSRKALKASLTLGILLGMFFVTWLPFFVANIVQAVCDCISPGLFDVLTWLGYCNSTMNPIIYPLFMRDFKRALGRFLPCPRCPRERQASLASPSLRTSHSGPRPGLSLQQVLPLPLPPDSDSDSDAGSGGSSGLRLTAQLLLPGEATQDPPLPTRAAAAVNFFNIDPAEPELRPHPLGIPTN
pIC50: −log10 of the molar value.
Label Condition not met if pIC50 falls below 6; label Condition met in every other case.

# Compound, Tested on, Class name
data = [
    ("CC(C)C[C@H]1C(=O)N2CCC[C@H]2[C@]2(O)O[C@](NC(=O)[C@@H]3C=C4c5cccc6[nH]cc(c56)C[C@H]4N(C)C3)(C(C)C)C(=O)N12 [ERGOCRYPTINE]", "5-hydroxytryptamine receptor 6 (Homo sapiens)", "Condition met"),
    ("Clc1ccc(COC(Cn2ccnc2)c2ccc(Cl)cc2Cl)c(Cl)c1 (configuration not stated) [MICONAZOLE]", "5-hydroxytryptamine receptor 6 (Homo sapiens)", "Condition not met"),
    ("CN(C)CCC=C1c2ccccc2CCc2ccccc21 [AMITRIPTYLINE]", "5-hydroxytryptamine receptor 6 (Homo sapiens)", "Condition met"),
    ("CN1[C@@H]2CC[C@H]1C[C@@H](OC(c1ccccc1)c1ccccc1)C2 [BENZTROPINE]", "5-hydroxytryptamine receptor 6 (Homo sapiens)", "Condition not met"),
    ("CN1CCCC(CN2c3ccccc3Sc3ccccc32)C1 (configuration not stated) [MEPAZINE]", "5-hydroxytryptamine receptor 6 (Homo sapiens)", "Condition not met"),
]

* * *

molecular target: 5-hydroxytryptamine receptor 1B (Rattus norvegicus); format: cell membranes, Wistar, Cerebral cortex, Membrane; settings: read-out: IC50; further: in other assays of this panel Not Active means under 50% inhibition at 10 µM
Sequence (P28564 whole entry): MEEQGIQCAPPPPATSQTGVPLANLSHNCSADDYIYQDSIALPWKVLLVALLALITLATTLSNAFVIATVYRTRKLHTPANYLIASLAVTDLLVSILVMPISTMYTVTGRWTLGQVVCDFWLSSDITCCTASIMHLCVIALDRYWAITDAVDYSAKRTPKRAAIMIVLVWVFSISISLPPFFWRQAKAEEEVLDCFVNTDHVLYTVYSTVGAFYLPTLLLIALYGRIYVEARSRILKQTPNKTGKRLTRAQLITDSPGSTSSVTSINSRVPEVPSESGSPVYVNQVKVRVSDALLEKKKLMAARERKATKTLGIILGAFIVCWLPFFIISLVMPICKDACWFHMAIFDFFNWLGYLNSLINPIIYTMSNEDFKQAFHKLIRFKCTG
Entries and their measured IC50 follow.

# Compound, Units, IC50
records = [
    ("CC(C)C[C@H]1C(=O)N2CCC[C@H]2[C@]2(O)O[C@](NC(=O)[C@@H]3C=C4c5cccc6[nH]cc(c56)C[C@H]4N(C)C3)(C(C)C)C(=O)N12", "µM", 0.0082),
    ("CN(C)CCC=C1c2ccccc2CCc2ccccc21", "µM", 3.73),
    ("Clc1ccc(COC(Cn2ccnc2)c2ccc(Cl)cc2Cl)c(Cl)c1 (stereo not drawn)", "µM", 20.6),
]

* * *

biological target: UniProt:P24557; experiment: biochemical; format: tissue-based, Platelet; settings: platelet
Sequence (P24557 whole entry): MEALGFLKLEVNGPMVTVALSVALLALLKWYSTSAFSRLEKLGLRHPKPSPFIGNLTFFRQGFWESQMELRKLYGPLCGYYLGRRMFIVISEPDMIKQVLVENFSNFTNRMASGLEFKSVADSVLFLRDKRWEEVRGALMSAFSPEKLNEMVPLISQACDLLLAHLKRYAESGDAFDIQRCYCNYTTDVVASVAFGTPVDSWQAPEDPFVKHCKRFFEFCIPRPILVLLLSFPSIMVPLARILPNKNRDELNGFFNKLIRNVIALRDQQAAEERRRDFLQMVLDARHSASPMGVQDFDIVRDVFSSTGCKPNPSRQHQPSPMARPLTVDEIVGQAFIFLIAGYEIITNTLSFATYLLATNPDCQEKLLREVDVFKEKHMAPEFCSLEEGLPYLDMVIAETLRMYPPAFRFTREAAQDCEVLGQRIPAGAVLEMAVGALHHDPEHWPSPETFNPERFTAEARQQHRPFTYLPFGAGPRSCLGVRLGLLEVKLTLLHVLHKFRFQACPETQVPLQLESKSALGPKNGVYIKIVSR

# Compound, IC50
rows = [
    ("C[C@@H]1C/C=C/C=C/C=C/C=C/[C@H](O[C@@H]2O[C@H](C)[C@@H](O)[C@H](N)[C@@H]2O)C[C@@H]2O[C@](O)(C[C@@H](O)C[C@H]3O[C@@H]3/C=C/C(=O)O1)C[C@H](O)[C@H]2C(=O)O", "Not Active"),
    ("CN1CCN(C(c2ccccc2)c2ccccc2)CC1", "Not Active"),
    ("CC(O)(P(=O)(O)O)P(=O)(O)O", "Not Active"),
    ("Cc1cccc(C)c1NC(=O)C1CCCCN1C (configuration not stated) [MEPIVACAINE]", "Not Active"),
    ("CCCCC1=NC2(CCCC2)C(=O)N1Cc1ccc(-c2ccccc2-c2nnn[nH]2)cc1", "Not Active"),
    ("C[C@@H]1O[C@@H](O[C@H]2C[C@@H](O)[C@]3(CO)[C@H]4[C@H](O)C[C@]5(C)[C@@H](C6=CC(=O)OC6)CC[C@]5(O)[C@@H]4CC[C@]3(O)C2)[C@H](O)[C@H](O)[C@H]1O", "Not Active"),
    ("O=c1[nH]c(=O)n([C@H]2C[C@H](O)[C@@H](CO)O2)cc1F", "Not Active"),
]
